Measured values drawn from the supplement of paper PMC10201428 for this set.

A collection of variants and their measured relative integration efficiency (log2)
B1: library; a variant is named by its letters at N, in order (parent)
chain: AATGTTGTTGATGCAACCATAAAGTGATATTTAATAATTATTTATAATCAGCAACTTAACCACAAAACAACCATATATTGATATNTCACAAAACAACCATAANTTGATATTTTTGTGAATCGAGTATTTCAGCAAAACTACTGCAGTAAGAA

# Variants of: B1
# PROTOCOL SUMMARY: relative integration efficiency (T-LR orientation) vs wild-type transposon end (log2 (normalized fold change)); transposon end mutated: left end; higher = more efficient transposition
# STATED CONDITIONS: with VchCAST RNA-guided transposition machinery (E. coli BL21(DE3) host, lacZ target)
# output: bare number, no unit

CG A16C C17A C18A A19C : -3.65
CG A99C T100G A101C A102C : -1.07
CG A64T A65T A66T A67T : -0.239
CG A37G : 0.434
TA G24A T30A T76A T78G C87A A96C T112G T113C : 0.0921
CG C55G T56A T57A A58T : -2.28
CG A62C : 0.284
CG A96G : -1.06
CG T111G : 0.0369
CG A50T : -0.977

[Q] Read the entry CG A109T and write its reported relative integration efficiency (log2).
[A] 0.223

[Q] Read the entry TA A16C G24T T30A A70C T76A T84A C87A T104A T110A T113A and write its reported relative integration efficiency (log2).
[A] -0.0907

[Q] Read the entry CG A118T A119T and write its reported relative integration efficiency (log2).
[A] 0.266

[Q] Read the entry TA A16C G24T T32G A33C A70C T76A T84A C87A A96C T112G T113C and write its reported relative integration efficiency (log2).
[A] -0.915

[Q] Read the entry CG C68G and write its reported relative integration efficiency (log2).
[A] -0.736

[Q] Read the entry CG T105G G106T A107C T108G and write its reported relative integration efficiency (log2).
[A] -2.48
